The compounds listed here are annotated with their growth inhibition.
Experiment: NCI Yeast Anticancer Drug Screen. Data for the sgs1 mgt1 strain (AID 161);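 further: 0% = growth of cultures given vehicle only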
Settings: S. cerevisiae sgs1 mgt1 strain, at 50.0 µM, hits give high values
The panel holds about 79,000 compounds, 15% with a hit somewhere; the sample as a whole holds those more often. Calls of active or inactive are those of the source. No stated cut-off is given here; in the data, active means growth inhibition above about 70%; inactive means the rest.

Known growth inhibition results, listed for orientation:
{"compound": "Fc1ccc(Cl)c2cccnc12", "growth inhibition": "-6% (inactive)"}
{"compound": "O=c1nc(Oc2ccccc2)nc2ncccn12", "growth inhibition": "40.5% (inactive)"}
{"compound": "CC(C)CC1=C(C(=O)c2ccoc2)CC(C)C1 (stereo not drawn)", "growth inhibition": "-18.9% (inactive)"}
{"compound": "Cc1cc(C)nc(Nc2nc3ccc([N+](=O)[O-])cc3[nH]2)n1", "growth inhibition": "5.5% (inactive)"}
{"compound": "CC(C)(C)NC(=O)NC(C)(C)C", "growth inhibition": "7.3% (inactive)"}

For CC#CCCCC1(C)CCNC1=S (stereo not drawn) the compound record lists growth inhibition as 30.5% (inactive)

Form: compound = O=C(NC(=O)c1c(F)cccc1F)Nc1nc2c(Cl)cccc2s1 ; growth inhibition = 10.1% (inactive)

Reported growth inhibition ( CCC(=O)CC(C)=O.CCC(=O)CC(C)=O.[Cu] ) = 5.5% (inactive)

get_value(item= O=C(Cc1ccc(Cl)cc1)c1ccccc1Cl , readout=growth inhibition) returns -1% (inactive)

The measured growth inhibition associated with O=c1[nH]c(=S)[nH]c2c1CCC2 reads 44.2% (inactive)

Form: compound = Cc1cc(N(CCCOS(C)(=O)=O)CCCOS(C)(=O)=O)ccc1C=Nc1cc(Cl)c(O)c(Cl)c1 ; growth inhibition = 62.8% (inactive)

Recorded result, CCOC(N)=C(C#N)C#N , growth inhibition: 3.45% (inactive)

* * *

Experiment: NCI Yeast Anticancer Drug Screen. Data for the cln2 rad14 strain (AID 165);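 further: 0% = growth equal to vehicle treated cultures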
Details: S. cerevisiae cln2 rad14 strain, at 50.0 µM, hits give high values
This is part of a sample that, as a whole, favours compounds with a hit. Of some 79,000 tested, about 15% had one in any assay. Active and inactive are the calls of the source. No stated cut-off is given here; in the data, active means growth inhibition above about 70%; inactive means the rest.
observationType: growth inhibition

Some solved cases for reference:
{"compound": "[N-]=[N+]=NCC(O)Cn1cnc2c(NC(=O)c3ccccc3)ncnc21 (centres undefined)", "growth inhibition": "-16.1% (inactive)"}
{"compound": "CCC(CC)C(=O)OCCCc1ccccc1", "growth inhibition": "-7.4% (inactive)"}

Form field growth inhibition, entry O=C(Nc1ccc(Br)cc1)C(=O)C(C(=O)c1ccccc1F)C1OC(=O)c2ccccc21 (centres undefined) : -50.9% (inactive)

The reported value for CC(Cc1cccc2ccccc12)(C(=O)O)C(=O)O in terms of growth inhibition is -14.2% (inactive)

* * *

Below, each entry is listed with its recorded growth inhibition.
Test: NCI Yeast Anticancer Drug Screen. Data for the cln2 rad14 strain (AID 165);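 further: 0% = growth equal to vehicle treated cultures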
Settings: S. cerevisiae cln2 rad14 strain, at 50.0 µM, hits give high values
Procedure: Growth inhibition of yeast strains with defined genetic alterations is measured as a screen for potential anti-cancer activity. Selected strains with alterations in DNA damage repair or cell cycle control were exposed to compounds and growth inhibition was measured relative to vehicle treated controls. The strain used in this assay is cln2 rad14
This is part of a sample that, as a whole, favours compounds with a hit. Of some 79,000 tested, about 15% had one in any assay.
Please respond with the number in % and leave the unit unwritten.

Known growth inhibition results, listed for orientation:
{"compound": "O=c1cc(Nc2ccccc2)c2ccccc2[nH]1", "growth inhibition (%)": 12.6}
{"compound": "Cc1cc(S(N)(=O)=O)c2ncccc2c1", "growth inhibition (%)": -33.1}
{"compound": "CN1CCC(=C2c3ccccc3CC(O)c3sccc32)CC1 (stereo not given)", "growth inhibition (%)": 3.5}
{"compound": "O=C(Oc1ccc(C(=O)c2ccccc2)cc1)C(Cl)=C(Cl)Cl", "growth inhibition (%)": -55.8}
{"compound": "Nc1nc(-c2cccc([N+](=O)[O-])c2)c(N=Nc2ccc(Br)cc2)s1", "growth inhibition (%)": 15.8}

CC(=O)NCCc1ccc(Cl)c(Cl)c1 yielded growth inhibition of -0.6

Reported growth inhibition ( O=C1c2cccc3cc([N+](=O)[O-])cc(c23)C(=O)N1CC1CCCO1 (stereo not given) ) = 18.1

Entry CC(=O)OC1C(O[C@H]2CC[C@]34O[C@]35CC[C@]3(C)C(C6(C)CC[C@@H](C(C)(C)O)O6)[C@@H](O)CC3(C)[C@@H]5CC(OC3OC(CO)C(O)C(O)C3O)C4C2(C)C)OCC(O)C1O (stereo not given in full) — recorded growth inhibition = 1.85

Documented growth inhibition of CC(C)OC(=O)Nc1cccc(C(=O)O)c1 : -14.5
